Values from patent US8207136B2

System: HUVECs
method: Cord formation assay
Assay type: cell-based
measurement.setup: Homo sapiens, HUVEC; 24 hours, averages from three trials; read-out: IC50, cord length
experimental.endpoint: IC50

(Q) State the recorded IC50 for this entry: NNc1c(C(N)=O)c2c(N)ncnc2n1[C@@H]1O[C@H](CO)[C@@H](O)[C@H]1O [ARC]
(A) ~0.382 µM

---

System: HUVECs
method: Motility assay with VEGF as chemoattractant
Format: cell-based
measurement.setup: Homo sapiens, HUVEC; 24 hours pretreatment, average from two trials; read-out: IC50, cell motility
pIC50: −log10 of the molar value.
experimental.endpoint: pIC50

(Q) Returns the measured pIC50 for the input compound. Input: NNc1c(C(N)=O)c2c(N)ncnc2n1[C@@H]1O[C@H](CO)[C@@H](O)[C@H]1O
(A) ~6.08
